molecular target: electric eel AChE (Electrophorus electricus, UniProt O42275); construct: purchased Sigma-Aldrich; assay: Acetylcholinesterase (AChE) inhibition assay, Ellman method; type: biochemical; settings: read-out: Acetylcholinesterase inhibitory activity at 20 µg/mL
Sequence (O42275 24-633): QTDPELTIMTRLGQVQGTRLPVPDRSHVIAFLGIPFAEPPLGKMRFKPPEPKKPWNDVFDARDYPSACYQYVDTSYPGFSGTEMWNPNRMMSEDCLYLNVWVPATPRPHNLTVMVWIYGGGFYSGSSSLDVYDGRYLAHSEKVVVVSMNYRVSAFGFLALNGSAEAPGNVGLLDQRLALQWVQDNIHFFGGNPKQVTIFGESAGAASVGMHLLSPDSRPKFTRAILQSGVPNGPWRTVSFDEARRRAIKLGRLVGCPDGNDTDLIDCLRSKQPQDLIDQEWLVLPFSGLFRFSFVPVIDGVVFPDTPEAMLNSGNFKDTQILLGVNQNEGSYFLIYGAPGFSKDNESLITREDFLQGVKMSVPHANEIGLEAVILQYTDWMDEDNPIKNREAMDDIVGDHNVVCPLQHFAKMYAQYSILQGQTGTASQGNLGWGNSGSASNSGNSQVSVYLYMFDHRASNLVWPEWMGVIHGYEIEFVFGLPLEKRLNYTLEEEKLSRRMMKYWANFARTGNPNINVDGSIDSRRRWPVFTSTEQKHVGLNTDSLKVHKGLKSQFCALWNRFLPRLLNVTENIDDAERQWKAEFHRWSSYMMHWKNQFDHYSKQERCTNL
observed-property: inhibition at 20 µg/mL (%)
Give the number; % is assumed, so skip it.

[
  {
    "compound": "C=C(C)C1CC=C(C)C(O)C1 (stereo not drawn) [trans-Carveol]",
    "unit-descriptor": "%",
    "quantitative-readout": 16.8
  }
]

The record that follows has no inhibition at 20 µg/mL shown yet.
Prompt: Recall the recorded inhibition at 20 µg/mL for C=C1CC[C@H]2O[C@]2(C)CC[C@@H]2[C@@H]1CC2(C)C [Caryophyllene Oxide] with electric eel AChE (Electrophorus electricus, UniProt O42275) and state it.
Completion: 0.49
